Origin of values: paper PMC11855827

# Tested on: C. elegans
# assay_procedure: microbe, parasite or virus in culture
# condition_description: Caenorhabditis elegans, 24 h, read-out: Percentage of motility inhibition 24 h, Table S2, C. elegans SS assay, 110 μM, 24 h, averages of 4 data points
Short version: inhibition at 110 µM at least 4% is T, less is F.

C=C[C@@]1(C)Cc2occ(C)c2[C@@H]2OC(=O)C(=C)[C@@H]21 [Isolinderalactone]	T

Threshold query (inhibition at 110 µM >= 4%) on C[C@@H]1CN(c2c(F)c(N)c3c(=O)c(C(=O)O)cn(C4CC4)c3c2F)C[C@H](C)N1 [Sparfloxacin]
T

Threshold query (inhibition at 110 µM >= 4%) on CC(C)=CCC[C@](C)(O[C@@H]1O[C@H](CO[C@@H]2O[C@@H](CO)[C@H](O)[C@H]2O)[C@@H](O)[C@H](O)[C@H]1O)[C@H]1CC[C@]2(C)[C@@H]1[C@H](O)C[C@@H]1[C@@]3(C)CC[C@H](O[C@@H]4O[C@H](CO)[C@@H](O)[C@H](O)[C@H]4O[C@@H]4O[C@H](CO)[C@@H](O)[C@H](O)[C@H]4O)C(C)(C)[C@@H]3CC[C@]12C [Ginsenoside Rc]
F

Threshold query (inhibition at 110 µM >= 4%) on COC(=O)[C@]12CCCC(C)(C)[C@@H]1CCc1cc(C(C)C)c(O)c(O)c12 [Methyl carnosate]
T
